test: Antiproliferative activity against HEK293 cells assessed as cell viability at 10^-4 M after 6 hrs by MTT assay relative to control
Format: cell-based
assayContext: human, read-out: Activity
// reported viability at 6 h, 100 µM for each item listed
Numeric only. Scale: %

{"columns": ["substanceSmiles", "unitSpec", "viability at 6 h, 100 µM"],
 "data": [
  ["c1cnc(-c2nc(-c3nc4ccccc4s3)cs2)nc1", "%", 117],
  ["c1cnc(-c2nc(-c3cccs3)cs2)nc1", "%", 77],
  ["Clc1ccccc1-c1csc(-c2ncccn2)n1", "%", 89.4]
]}

Input line: Supply reported viability at 6 h, 100 µM belonging to this compound: COc1cccc(-c2csc(-c3ncccn3)n2)c1
Output line: 95

Input line: Output viability at 6 h, 100 µM of Clc1ccc(-c2csc(-c3ncccn3)n2)cc1
Output line: 101

Input line: # return recorded viability at 6 h, 100 µM for entry Cc1ccc(O)c(-c2csc(-c3ncccn3)n2)c1
Output line: 91.8

Input line: Give viability at 6 h, 100 µM for the following compound: c1cnc(-c2nc(-c3ccncc3)cs2)nc1
Output line: 101

---

test: Antiproliferative activity against HEK293 cells assessed as cell viability at 10^-4 M after 6 hrs by MTT assay relative to control
Assay type: cell-based
assayContext: human, read-out: Activity
valueType: viability at 6 h, 100 µM (%)
Unit % implied. Number only.

See these solved cases before continuing.
{"columns": ["substanceSmiles", "observedResult"],
 "data": [
  ["Cn1c(-c2csc(-c3ncccn3)n2)nc2ccccc21", 102],
  ["c1cnc(-c2nc(-c3cc4ccccc4o3)cs2)nc1", 108],
  ["Oc1ccc(Cl)cc1-c1csc(-c2ncccn2)n1", 78],
  ["c1cnc(-c2nc(-c3cccnc3)cs2)nc1", 89],
  ["c1cnc(-c2nc(-c3cc4ccccc4s3)cs2)nc1", 83.5]
]}

Input line: Consider the molecule COc1ccc(-c2csc(-c3ncccn3)n2)cc1 and give its recorded viability at 6 h, 100 µM.
Output line: 101

Input line: Output viability at 6 h, 100 µM of c1cnc(-c2nc(-c3ccco3)cs2)nc1
Output line: 59

---

test: Antiproliferative activity against HEK293 cells assessed as cell viability at 10^-4 M after 6 hrs by MTT assay relative to control
Type: cell-based
assayContext: human, read-out: Activity
valueType: viability at 6 h, 100 µM (%)
Report the value in % with no unit label.

{"columns": ["substanceSmiles", "viability at 6 h, 100 µM / %"],
 "data": [
  ["Oc1cccc(-c2csc(-c3ncccn3)n2)c1", 113],
  ["Oc1ccccc1-c1csc(-c2ncccn2)n1", 131],
  ["Clc1cccc(-c2csc(-c3ncccn3)n2)c1", 107],
  ["COc1ccc(O)c(-c2csc(-c3ncccn3)n2)c1", 81.3],
  ["c1ccc(-c2csc(-c3ncccn3)n2)nc1", 101]
]}

Input line: Give recorded viability at 6 h, 100 µM. COc1ccccc1-c1csc(-c2ncccn2)n1
Output line: 87

Input line: Please look at this compound and report its viability at 6 h, 100 µM: Oc1ccc(-c2csc(-c3ncccn3)n2)cc1
Output line: 94

---

tgt: Aromatase (Homo sapiens, UniProt P11511)
Sequence (P11511 whole entry): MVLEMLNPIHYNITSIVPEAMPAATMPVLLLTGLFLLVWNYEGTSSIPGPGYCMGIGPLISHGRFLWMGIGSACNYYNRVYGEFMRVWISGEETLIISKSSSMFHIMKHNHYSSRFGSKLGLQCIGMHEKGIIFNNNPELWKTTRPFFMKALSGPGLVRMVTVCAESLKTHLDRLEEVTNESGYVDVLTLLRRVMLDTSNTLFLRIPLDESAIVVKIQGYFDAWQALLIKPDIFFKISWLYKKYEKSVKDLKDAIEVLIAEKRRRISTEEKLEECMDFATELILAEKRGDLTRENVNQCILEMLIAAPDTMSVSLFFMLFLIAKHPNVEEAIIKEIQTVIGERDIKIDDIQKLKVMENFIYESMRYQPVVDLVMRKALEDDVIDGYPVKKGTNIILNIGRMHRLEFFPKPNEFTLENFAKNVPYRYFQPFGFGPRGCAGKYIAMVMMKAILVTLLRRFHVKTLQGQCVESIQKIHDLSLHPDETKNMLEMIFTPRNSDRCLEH
valueType: IC50 (nM)
Express it in nM; write the number only.

Input line: Report IC50 under test system Aromatase (Homo sapiens, UniProt P11511) for c1cncc(-c2nsc(-c3cccnc3)n2)c1 .
Output line: 240
